Record form. Attribute: % Change Compared to pH 7.4 + Calcium. Fill in for each entry.
Molecular target: T1, recombinant, soluble human ASGR-1 (human, UniProt P07306 62-291)
T1 construct: biotinylated in the binning assay; also called soluble huASGR-1; Soluble ASGR-1 (Amgen)
T1 sequence: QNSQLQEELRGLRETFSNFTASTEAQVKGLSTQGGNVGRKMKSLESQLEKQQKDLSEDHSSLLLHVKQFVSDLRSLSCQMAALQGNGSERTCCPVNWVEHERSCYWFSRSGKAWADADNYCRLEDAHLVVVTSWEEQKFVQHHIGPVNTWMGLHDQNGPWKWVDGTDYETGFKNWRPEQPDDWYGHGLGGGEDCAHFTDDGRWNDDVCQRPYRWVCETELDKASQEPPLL
Test: Octet BLI dissociation, pH 5.6 plus calcium
The answer should read as a number with its unit following.

# Binder, % Change Compared to pH 7.4 + Calcium
measured = [
    ("172C3 (antibody, V domains shown, hybridoma mAb) VH: QVQLVQSGAEVKKPGASVKVSCKASGYTFRSYYMYWVRQAPGQGLEWVGTINPSGGSTNYAQKFQGRVTMTRDTSTSTLYMELNSLRSEDTAVYYCASGWELNYWGQGTLVTVSS VL: SSELTQDPAVSVALGQTVRITCQGDSLRNYYVSWYQQKPGQAPILVIYTKNSRPSGIPDRFSGSTSGNTASLTITGTQAEDEADYYCNSRDSSGNHVVFGGGTKLTVL", "-26%"),
]

Now for the binder whose % Change Compared to pH 7.4 + Calcium we want.
Task: Data request, read-out % Change Compared to pH 7.4 + Calcium, for 50D4 (antibody, V domains shown, hybridoma mAb) VH: QVQLVQSGAEVKKPGASVKVSCKASGYTFTGYHMHWVRQAPGQGLEWMGWINPNNNATNYAQSFQGRVTLTRDTSISTAYMELSRLRSDDTAVYYCARDGTSSFDFWGQGTLVTVSS VL: DIQMTQSPSSVSASVGDRLTITCRASQGISRWLAWYQQKPGKAPKVLIYAASTLQSGVPSRFSGSGSGTDFTLTISSLQPEDFATYYCQQANSFPFTFGPGTKVDIR
Output: 0%

Values from patent US20190248902A1
